- target_or_system: PRMT5 (Homo sapiens, UniProt O14744)
- Construct: purchased Viva (custom protein)
- Sequence (O14744 whole entry): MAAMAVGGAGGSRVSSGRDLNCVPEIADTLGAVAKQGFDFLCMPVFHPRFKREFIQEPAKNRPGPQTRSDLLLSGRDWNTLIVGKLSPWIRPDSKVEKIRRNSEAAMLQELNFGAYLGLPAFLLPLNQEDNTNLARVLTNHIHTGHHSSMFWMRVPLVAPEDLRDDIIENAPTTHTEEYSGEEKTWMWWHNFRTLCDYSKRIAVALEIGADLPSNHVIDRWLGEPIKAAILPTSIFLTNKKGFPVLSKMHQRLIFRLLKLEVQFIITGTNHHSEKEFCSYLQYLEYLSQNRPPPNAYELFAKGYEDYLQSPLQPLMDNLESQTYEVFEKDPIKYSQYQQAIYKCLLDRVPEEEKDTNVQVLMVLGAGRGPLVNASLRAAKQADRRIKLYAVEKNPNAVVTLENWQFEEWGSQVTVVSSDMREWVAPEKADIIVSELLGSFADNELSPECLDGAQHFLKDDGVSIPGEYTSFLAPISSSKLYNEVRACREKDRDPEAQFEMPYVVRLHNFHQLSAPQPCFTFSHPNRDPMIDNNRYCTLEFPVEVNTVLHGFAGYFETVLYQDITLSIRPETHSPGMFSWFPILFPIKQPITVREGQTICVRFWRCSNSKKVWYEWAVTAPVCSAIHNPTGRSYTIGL
- Sequence (Q9BQA1 whole entry partner): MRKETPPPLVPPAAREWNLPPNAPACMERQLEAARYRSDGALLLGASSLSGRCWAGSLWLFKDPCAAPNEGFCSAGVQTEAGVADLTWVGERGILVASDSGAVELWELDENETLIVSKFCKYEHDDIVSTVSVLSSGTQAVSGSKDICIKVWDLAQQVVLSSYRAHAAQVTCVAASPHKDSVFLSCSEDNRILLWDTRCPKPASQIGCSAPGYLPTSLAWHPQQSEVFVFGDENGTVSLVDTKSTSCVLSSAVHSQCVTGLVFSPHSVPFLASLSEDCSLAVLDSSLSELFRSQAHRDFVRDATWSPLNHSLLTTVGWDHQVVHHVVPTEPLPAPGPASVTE
- procedure_summary: PRMT5 biochemical IC50 assay with no cofactor
- condition_summary: PRMT5, no cofactor; read-out: No Cofactor/rel IC50
Below: a set of entries, each annotated with reported IC50.
measure: IC50

[[record]]
compound = "C[C@@H]1CN(C(=O)C(=O)Nc2cncc(C(N)=O)c2)C[C@@H]2CCCC[C@@H]21 (racemic) [Compound 541]"
measure = "IC50"
value = "> 500 nM"

[[record]]
compound = "Cc1cc(NC(=O)C(=O)N2C[C@H](C)CC[C@H]2c2ccc3c(c2)CCNC3=O)cnc1N (single isomer, unassigned) [Compound 994]"
measure = "IC50"
value = "> 500 nM"

[[record]]
compound = "C[C@@H]1CC[C@@H](c2ccc(F)c(F)c2)N(C(=O)C(=O)Nc2cncc(C(N)=O)c2)C1 (racemic) [Compound 263]"
measure = "IC50"
value = "50 to 500 nM"


====

- Tested on: HAP1 MTAP-intact cell line
- procedure_summary: SDMA in-cell western assay, HAP1 MTAP-intact
- Format: cell-based
- condition_summary: Homo sapiens, HAP1, SDMA in-cell western, HAP1 MTAP-intact; read-out: MTAP HAP1 intact IC50
pIC50: −log10 of the molar value.
measure: pIC50

[[record]]
compound = "C[C@H]1CC[C@H](c2ccc3sc(CN(C)C)nc3c2)N(C(=O)C(=O)Nc2cnc(N)c(C3CC3)c2)C1"
value = "> 7.00"

[[record]]
compound = "Cc1cc(NC(=O)C(=O)N2C[C@H](C)CC[C@H]2c2cscn2)cnc1N (single isomer, unassigned)"
value = "< 6.00"

[[record]]
compound = "Cc1cc(NC(=O)C(=O)N2C[C@@H](C)CC[C@@H]2c2ccc(NCC(F)(F)F)cc2)cnc1N (single isomer, unassigned)"
value = "< 6.00"

[[record]]
compound = "Cc1cc(NC(=O)C(=O)N2C[C@H](C)CC[C@H]2c2ccc3[nH]nc(N)c3c2)cnc1C (single isomer, unassigned)"
value = "< 6.00"

[[record]]
compound = "C[C@@H]1CC[C@@H](c2ccc3nncn3c2)N(C(=O)C(=O)Nc2cncc(C(N)=O)c2)C1 (racemic)"
value = "< 6.00"

[[record]]
compound = "Cc1ccc([C@@H]2CC[C@@H](C)CN2C(=O)C(=O)Nc2cnc(N)c(C)c2)cc1O (racemic)"
value = "6.00 to 7.00"

[[record]]
compound = "COc1ncc(NC(=O)C(=O)N2C[C@@H](C)CC[C@@H]2c2cc(F)c(F)c(F)c2)cc1C(N)=O (single isomer, unassigned)"
value = "< 6.00"

[[record]]
compound = "Cc1cc(NC(=O)C(=O)N2CCCCC2c2ccccc2)cnc1N (racemic)"
value = "< 6.00"

[[record]]
compound = "C[C@@H]1CC[C@@H](c2ccc(N3CCCC3)nc2)N(C(=O)C(=O)Nc2cncc(C(N)=O)c2)C1 (racemic)"
value = "< 6.00"

[[record]]
compound = "COc1ncc(NC(=O)C(=O)N2C[C@H](C)CC[C@H]2c2ccc(N)nc2)cc1C(N)=O (single isomer, unassigned)"
value = "< 6.00"

[[record]]
compound = "CCc1cc(NC(=O)C(=O)N2C[C@H](C)CC[C@H]2c2ccc(-c3nccs3)cc2)cnc1N (single isomer, unassigned)"
value = "< 6.00"

[[record]]
compound = "Cc1cc(NC(=O)C(=O)N2C[C@H](C)C[C@H](C)[C@H]2c2ccccc2)cnc1N (single isomer, unassigned)"
value = "< 6.00"

[[record]]
compound = "C[C@@H]1CN(C(=O)C(=O)Nc2cncc(C(N)=O)c2)C[C@H]2CCCC[C@H]21 (racemic)"
value = "< 6.00"

[[record]]
compound = "Cc1cc(NC(=O)C(=O)N2CCCCC2C2CCCCC2)cnc1N (centres unmarked)"
value = "< 6.00"

[[record]]
compound = "CCc1cc(NC(=O)C(=O)N2C[C@@H](C)CC[C@@H]2c2ccc(OCC3CCN(C)CC3)cc2)cnc1N"
value = "6.00 to 7.00"

[[record]]
compound = "C[C@H]1CC[C@H](c2ccc(N)cn2)N(C(=O)C(=O)Nc2cncc(C(N)=O)c2)C1 (relative stereo)"
value = "< 6.00"

[[record]]
compound = "CCc1cc(NC(=O)C(=O)N2C[C@@H](C)CC[C@@H]2c2cc3[nH]ncc3s2)cnc1N (single isomer, unassigned)"
value = "< 6.00"

[[record]]
compound = "CCc1cc(NC(=O)C(=O)N2C[C@@H](C)CC[C@@H]2c2ccc3sc(C45CCC(CC4)N(C)C5)nc3c2)cnc1N"
value = "> 7.00"

[[record]]
compound = "CNc1nc2cc([C@H]3CC[C@H](C)CN3C(=O)C(=O)Nc3cnc(OC)c(C(N)=O)c3)ccc2s1 (single isomer, unassigned)"
value = "< 6.00"

[[record]]
compound = "CC(=O)N[C@H]1CCN(C(=O)C(=O)Nc2cncc(C(N)=O)c2)[C@@H](c2ccccc2)C1 (racemic)"
value = "< 6.00"

[[record]]
compound = "C[C@H]1CC[C@H](c2ccccc2)N(C(=O)C(=O)Nc2cncc(C(N)=O)c2)[C@H]1C (single isomer, unassigned)"
value = "< 6.00"

[[record]]
compound = "COc1cc(OC)cc([C@@H]2CC[C@@H](C)CN2C(=O)C(=O)Nc2cncc(C(N)=O)c2)c1 (racemic)"
value = "< 6.00"

[[record]]
compound = "COc1ncc(NC(=O)C(=O)N2C[C@@H](C)CC[C@@H]2c2ccc3nn([C@@H]4CCN(C)C4)cc3c2)cc1C(N)=O (racemic)"
value = "6.00 to 7.00"

[[record]]
compound = "C[C@H]1CC[C@H](c2ccc3cncn3c2)N(C(=O)C(=O)Nc2cnc(N)c(C3CC3)c2)C1 (single isomer, unassigned)"
value = "6.00 to 7.00"

[[record]]
compound = "CCc1cc(NC(=O)C(=O)N2C[C@@H](C)CC[C@@H]2c2ccc3sc([C@H]4CCCN(C)C4)nc3c2)cnc1N"
value = "> 7.00"

[[record]]
compound = "Cc1cc(NC(=O)C(=O)N2C[C@@H](C)CC[C@@H]2c2ccc3c(c2)CCC(=O)N3)cnc1C (single isomer, unassigned)"
value = "< 6.00"


====

- target_or_system: PRMT5 (Homo sapiens)
- Construct: purchased Viva (custom protein)
- procedure_summary: PRMT5 biochemical IC50 assay with no cofactor
- condition_summary: PRMT5, no cofactor; read-out: No Cofactor/rel IC50
Below: a set of entries, each annotated with reported IC50.
measure: IC50

[[record]]
molecule = "CC(=O)Nc1ccc([C@H]2CC[C@H](C)CN2C(=O)C(=O)Nc2cnc(N)c(C)c2)s1 (single isomer, unassigned) [Compound 717]"
value = "> 500 nM"

[[record]]
molecule = "CCc1cc(NC(=O)C(=O)N2C[C@H](C)CC[C@H]2c2ccc3[nH]cnc3c2)cnc1N (single isomer, unassigned) [Compound 771]"
value = "> 500 nM"

[[record]]
molecule = "Cc1cc(NC(=O)C(=O)N2C[C@@H](C)CC[C@@H]2c2cccc3[nH]ncc23)cnc1N (single isomer, unassigned) [Compound 790]"
value = "> 500 nM"

[[record]]
molecule = "Cc1cc(NC(=O)C(=O)N2C[C@@H](C)CC[C@@H]2c2ccc3sc(C(F)(F)F)nc3c2)cnc1N (single isomer, unassigned) [Compound 972]"
value = "50 to 500 nM"

[[record]]
molecule = "CNc1cccc([C@H]2CC[C@H](C)CN2C(=O)C(=O)Nc2cnc(N)c(C)c2)c1 (single isomer, unassigned) [Compound 450]"
value = "> 500 nM"

[[record]]
molecule = "NC(=O)c1cncc(NC(=O)C(=O)N2C[C@H](c3cc[nH]n3)CC[C@H]2c2ccccc2)c1 (racemic) [Compound 669]"
value = "> 500 nM"


====

- target_or_system: PRMT5 (Homo sapiens, UniProt O14744)
- Construct: purchased Viva (custom protein)
- procedure_summary: PRMT5 biochemical IC50 assay with no cofactor
- condition_summary: PRMT5, no cofactor; read-out: No Cofactor/rel IC50
pIC50: −log10 of the molar value.
measure: pIC50

[[record]]
compound = "CCc1cc(NC(=O)C(=O)N2C[C@@H](C)CC[C@@H]2c2ccc(NS(C)(=O)=O)nc2)cnc1N (single isomer, unassigned)"
measure = "pIC50"
value = "< 6.30"

[[record]]
compound = "CCc1cc(NC(=O)C(=O)N2C[C@@H](C)CC[C@@H]2c2cccc(CCN(C)C)c2)cnc1N"
measure = "pIC50"
value = "> 7.30"

[[record]]
compound = "CCc1cc(NC(=O)C(=O)N2C[C@@H](C)CC[C@@H]2c2ccc3c(c2)CNC3=O)cnc1N (single isomer, unassigned)"
measure = "pIC50"
value = "> 7.30"

[[record]]
compound = "Cc1ccc([C@H]2CC(F)(F)[C@H](C)CN2C(=O)C(=O)Nc2cnc(N)c(C)c2)cn1 (single isomer, unassigned)"
measure = "pIC50"
value = "6.30 to 7.30"

[[record]]
compound = "CC(C)c1cc([C@@H]2CC[C@@H](C)CN2C(=O)C(=O)Nc2cncc(C(N)=O)c2)ccc1O (racemic)"
measure = "pIC50"
value = "6.30 to 7.30"

[[record]]
compound = "C[C@H]1CC[C@H]([C@@H]2CCC[C@@H](O)C2)N(C(=O)C(=O)Nc2cncc(C(N)=O)c2)C1 (single isomer, unassigned)"
measure = "pIC50"
value = "6.30 to 7.30"

[[record]]
compound = "CCc1cc(NC(=O)C(=O)N2C[C@@H](C)CC[C@@H]2c2ccc3sc(C45CC(CN(C)C4)C5)nc3c2)cnc1N"
measure = "pIC50"
value = "> 7.30"

[[record]]
compound = "Cc1cc(NC(=O)C(=O)N2C[C@@H](C)[C@H](C)C[C@H]2c2ccccc2)cnc1N (single isomer, unassigned)"
measure = "pIC50"
value = "6.30 to 7.30"

[[record]]
compound = "CNc1cccc([C@H]2CCCCN2C(=O)C(=O)Nc2cncc(C(N)=O)c2)c1 (single isomer, unassigned)"
measure = "pIC50"
value = "< 6.30"

[[record]]
compound = "Cc1cc(NC(=O)C(=O)N2C[C@@H](C)CC[C@@H]2c2ccc(N3CCN(C)CC3)nc2)cnc1N (single isomer, unassigned)"
measure = "pIC50"
value = "< 6.30"

[[record]]
compound = "Cc1nc2cc([C@@H]3CC[C@@H](C)CN3C(=O)C(=O)Nc3cnc(N)c(C)c3)ccc2[nH]1 (single isomer, unassigned)"
measure = "pIC50"
value = "< 6.30"

[[record]]
compound = "Cc1cc(NC(=O)C(=O)N2C[C@H](C)CC[C@H]2c2ccc(F)c(O)c2)cnc1N (racemic)"
measure = "pIC50"
value = "6.30 to 7.30"

[[record]]
compound = "C[C@@H]1CC[C@@H](c2ccc(OC3CCOC3)cc2)N(C(=O)C(=O)Nc2cncc(C(N)=O)c2)C1 (mixture of isomers)"
measure = "pIC50"
value = "6.30 to 7.30"

[[record]]
compound = "CCc1cc([C@@H]2CC[C@@H](C)CN2C(=O)C(=O)Nc2cncc(C(N)=O)c2)ccc1O (racemic)"
measure = "pIC50"
value = "6.30 to 7.30"

[[record]]
compound = "C[C@H]1CC[C@H](c2csc3ccccc23)N(C(=O)C(=O)Nc2cncc(C(N)=O)c2)C1 (single isomer, unassigned)"
measure = "pIC50"
value = "< 6.30"

[[record]]
compound = "Cc1cc(NC(=O)C(=O)N2C[C@H](C)CC[C@H]2c2cccc(N(C)C)c2)cnc1N (single isomer, unassigned)"
measure = "pIC50"
value = "> 7.30"

[[record]]
compound = "CCc1cc(NC(=O)C(=O)N2C[C@@H](C)CC[C@@H]2c2cccc(OCCN(C)C)c2)cnc1N"
measure = "pIC50"
value = "> 7.30"


Values were extracted from patent US11999727B2.
